Tested on: antibodies in sera from SARS patients (sera 1a, 1b, 2, 6, 37, 62, London, SARS-yellow, SARS-green)
Type: binding, human
Set-up: unit not given here
sequences and their reported Binding of serum 37 to looped/cyclic peptide (PEPSCAN-ELISA)
Answer with a number only.

Before answering, review these 5 worked examples.
(Q) Any idea what its Binding of serum 37 to looped/cyclic peptide (PEPSCAN-ELISA) is? The sequence is VAFLAVFQSATKIIA
(A) 0.6

(Q) Any idea what its Binding of serum 37 to looped/cyclic peptide (PEPSCAN-ELISA) is? The sequence is LPFGWLVIGVAFLAV
(A) 0.6

(Q) Any idea what its Binding of serum 37 to looped/cyclic peptide (PEPSCAN-ELISA) is? The sequence is LVAAGMEAQFLYLYA
(A) 0.5

(Q) Any idea what its Binding of serum 37 to looped/cyclic peptide (PEPSCAN-ELISA) is? The sequence is ATATIPLQASLPFGW
(A) 0.7

(Q) Any idea what its Binding of serum 37 to looped/cyclic peptide (PEPSCAN-ELISA) is? The sequence is VTIYSHLLLVAAGME
(A) 0.5

***
(Q) Any idea what its Binding of serum 37 to looped/cyclic peptide (PEPSCAN-ELISA) is? The sequence is MEAQFLYLYALIYFL
(A) 0.8

(Q) Any idea what its Binding of serum 37 to looped/cyclic peptide (PEPSCAN-ELISA) is? The sequence is GVAFLAVFQSATKII
(A) 0.6

(Q) Any idea what its Binding of serum 37 to looped/cyclic peptide (PEPSCAN-ELISA) is? The sequence is CINACRIIMRCWLCW
(A) 0.6

(Q) Any idea what its Binding of serum 37 to looped/cyclic peptide (PEPSCAN-ELISA) is? The sequence is PFGWLVIGVAFLAVF
(A) 0.5

(Q) Any idea what its Binding of serum 37 to looped/cyclic peptide (PEPSCAN-ELISA) is? The sequence is LFVTIYSHLLLVAAG
(A) 0.5

====

System: control sera (pooled serum of ten healthy LUMC hospital workers; commercial negative donor pooled serum from the Dutch bloodbank)
Type: binding, human
Parameters: unit not given here
MEASURE: Binding of Control serum LUMC to linear peptides

Before answering, review these 5 worked examples.
(Q) Any idea what its Binding of Control serum LUMC to linear peptides is? The sequence is FGGPTDSTDNNQNGG
(A) 0.5

(Q) Any idea what its Binding of Control serum LUMC to linear peptides is? The sequence is NSPARMASGGGETAL
(A) 0.7

(Q) Any idea what its Binding of Control serum LUMC to linear peptides is? The sequence is LSPRWYFYYLGTGPE
(A) 0.8

(Q) Any idea what its Binding of Control serum LUMC to linear peptides is? The sequence is RTATKQYNVTQAFGR
(A) 0.8

(Q) Any idea what its Binding of Control serum LUMC to linear peptides is? The sequence is SSLTSLLKTHRMCKY
(A) 0.4

***
(Q) Any idea what its Binding of Control serum LUMC to linear peptides is? The sequence is VILRIGTQVLKTMSL
(A) 0.5

(Q) Any idea what its Binding of Control serum LUMC to linear peptides is? The sequence is LIARCWYLHEGHQTA
(A) 0.4

(Q) Any idea what its Binding of Control serum LUMC to linear peptides is? The sequence is RRVRGGDGKMKELSP
(A) 0.9

(Q) Any idea what its Binding of Control serum LUMC to linear peptides is? The sequence is SSGVANPAMDPIYDE
(A) 0.5

(Q) Any idea what its Binding of Control serum LUMC to linear peptides is? The sequence is FAFACADGTRHTYQL
(A) 0.5

(Q) Any idea what its Binding of Control serum LUMC to linear peptides is? The sequence is LLDRLNQLESKVSGK
(A) 0.6

(Q) Any idea what its Binding of Control serum LUMC to linear peptides is? The sequence is LCAYCCNIVNVSLVK
(A) 0.8

(Q) Any idea what its Binding of Control serum LUMC to linear peptides is? The sequence is DGSSGVANPAMDPIY
(A) 0.8

(Q) Any idea what its Binding of Control serum LUMC to linear peptides is? The sequence is CPSGTYEGNSPFHPL
(A) 0.6

(Q) Any idea what its Binding of Control serum LUMC to linear peptides is? The sequence is WIQFMMSRRRLLACL
(A) 0.4
